Data origin: patent US20240376198A1

# targetEntity: T1, human NKp46 (human, UniProt O76036 22-304)
# T1 construct: also called CD335; NCR1
# T1 sequence (O76036 22-304 Q82K): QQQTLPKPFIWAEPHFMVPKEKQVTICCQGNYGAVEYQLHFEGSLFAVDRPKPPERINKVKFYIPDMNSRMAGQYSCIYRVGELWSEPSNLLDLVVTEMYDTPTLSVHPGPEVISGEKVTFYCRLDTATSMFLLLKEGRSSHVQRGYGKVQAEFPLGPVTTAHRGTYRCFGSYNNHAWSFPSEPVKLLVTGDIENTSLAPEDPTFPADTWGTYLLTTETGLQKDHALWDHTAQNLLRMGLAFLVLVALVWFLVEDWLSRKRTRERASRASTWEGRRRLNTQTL
# assayDetails: flow cytometry, HEK293F cells transfected with human NKp46

binder: NKp46-hz5D7v10-Fc* (Fc fusion, VHH-Fc fusion with an IgG1 Fc lacking a hinge (Fc*)) EVQLVESGGSLRLSCAASGRTFASAAMGWFRQAPGKEREFVAAISRSDDTYYADSVKGRFTISRDNAKNTVYLQMSSLRAEDTAVYYCAAVVPTYGNNIYVHSAAYNYWGQGTLVTVKPGGGGPSVFLFPPKPKDTLMISRTPEVTCVVVDVSHEDPEVKFNWYVDGVEVHNAKTKPREEQYNSTYRVVSVLTVLHQDWLNGKEYKCKVSNKALPAPIEKTISKAKGQPREPQVYTLPPSRDELTKNQVSLTCLVKGFYPSDIAVEWESNGQPENNYKTTPPVLDSDGSFFLYSKLTVDKSRWQQGNVFSCSVMHEALHNHYTQKSLSLSPG
Kd (nM): 0.269
--
binder: NKp46-hz5D7v11-Fc* (Fc fusion, VHH-Fc fusion with an IgG1 Fc lacking a hinge (Fc*)) EVQLVESGGGEVQPGGSLRLSCAASGRTFASAAMGWFRQAPGKEREFVAAISRSDDTYYADSVKGRFTISRDNAKNTVYLQMSSLRAEDTAVYYCAAVVPTYGSNIYVYSAAYNYWGQGTLVTVKPGGGGPSVFLFPPKPKDTLMISRTPEVTCVVVDVSHEDPEVKFNWYVDGVEVHNAKTKPREEQYNSTYRVVSVLTVLHQDWLNGKEYKCKVSNKALPAPIEKTISKAKGQPREPQVYTLPPSRDELTKNQVSLTCLVKGFYPSDIAVEWESNGQPENNYKTTPPVLDSDGSFFLYSKLTVDKSRWQQGNVFSCSVMHEALHNHYTQKSLSLSPG
Kd (nM): 0.189
